- System: RXF 393 renal
- test method notes: NCI-60 one-dose screen, 48 h (100 = growth as untreated, 0 = no growth, -100 = all killed)
- condition info: 10 µM unless noted
The panel holds about 83,000 compounds, 20% with a hit somewhere; the sample as a whole holds those more often.
Please provide measured growth for the entries that follow.
Form entry: value (%) — number only.

Sample `NC(=O)c1ccccc1NC(=O)c1ccccc1Cl` — what was its growth? 82.1

Sample `C=CCOc1ccc2c(c1)CC[C@@H]1[C@@H]2CC[C@@]2(C)[C@H]1CC[C@]2(C)O` — what was its growth? 106

Sample `O[C@@H]1Cc2ccc3ccccc3c2N[C@H](c2ccoc2)C1` — what was its growth? 108

Sample `O=C1CC(C(F)(F)F)=NN1C(=O)c1nn(-c2ccc(Cl)cc2)cc1O` — what was its growth? 78.1

Sample `O=C(CCc1nnc(Cn2ccnc2)o1)c1nc2ccccc2[nH]1` — what was its growth? 124

###

- Test system: CAKI-1 renal
- test method notes: NCI-60 one-dose screen, 48 h (100 = growth as untreated, 0 = no growth, -100 = all killed)
- condition info: 10 µM unless noted
- Protocol: Growth inhibition of the CAKI-1 human tumor cell line is measured as a screen for anti-cancer activity. Cells are grown in 96 well plates and exposed to the test compound for 48 hours. Compounds are tested at a single concentration, which is 10^-5 M for most compounds. The reported endpoint is percent growth (GI% or GIPRCNT), where numbers from 0 - 100% represent growth inhibition, and numbers from -100% - 0 represent cell death. For example, a value of 40 represents 60% growth inhibition. […]
Compounds without any hit were thinned out: in the full panel of roughly 83,000, 20% have a hit.
growth class ranges: class A: < 50%; class B: ≥ 50% and < 90%; class C: ≥ 90%

Hi, small favor: classify `CCCCCCCCCCSc1ncnc2nc[nH]c12` by its growth when you get a moment. class B

Hi, small favor: classify `O=C(/C=C/c1ccc(Cl)cc1)c1ccccc1` by its growth when you get a moment. class C

Hi, small favor: classify O=c1ccn(C2OC(CO)C(O)C2F)c(=O)[nH]1 (stereo not given) by its growth when you get a moment. class C

Hi, small favor: classify `COc1ccc2c3c(c(OCCCN(C)C)nc2c1)-c1ccc(Cl)cc1C3=O` by its growth when you get a moment. class A

Hi, small favor: classify `NC(N)=N/N=C(/c1ccccc1)c1ccc(Cl)cc1` by its growth when you get a moment. class A

Hi, small favor: classify `C[n+]1c2ccccc2c(Nc2ccc(N3CCCCC3)cc2)c2[nH]c3ccccc3c21` by its growth when you get a moment. class A

Hi, small favor: classify CN1CCCC1c1cccnc1 (stereo not given) by its growth when you get a moment. class C

Hi, small favor: classify `O=[N+]([O-])c1ccc(N/N=C/c2c(O)ccc3ccccc23)nc1` by its growth when you get a moment. class A

Hi, small favor: classify `c1ccc(Nc2nnc(-c3cc(-c4cccnc4)n(-c4ccccc4)n3)s2)cc1` by its growth when you get a moment. class A

Hi, small favor: classify COc1ccc(C2=NNC(c3cc(Cc4ccc(O)c(C5CC(c6ccc(OC)cc6)=NN5)c4)ccc3O)C2)cc1 (stereo not given) by its growth when you get a moment. class A

Hi, small favor: classify `CN1CCN(CC(=O)Nc2nc3c(s2)Nc2cc(Cl)c(Cl)cc2NC3=O)CC1` by its growth when you get a moment. class C

Hi, small favor: classify `CCOc1nc(-c2ccccc2)cc2c(O)c(C(=O)n3nc(C)cc3C)[nH]c(=O)c12` by its growth when you get a moment. class C

Hi, small favor: classify `Oc1ccc(-c2nn(-c3ccccc3)cc2-c2nc3ccccc3s2)cc1` by its growth when you get a moment. class B

Hi, small favor: classify `[O-]/[N+](=C\C=C\c1ccccc1)c1ccccc1` by its growth when you get a moment. class C

Hi, small favor: classify `COC(=O)[C@]12CC[C@@H](C)[C@H](C)[C@@H]1C1=CC[C@@H]3[C@@]4(C)C[C@@H](OC(=O)c5ccco5)[C@H](O)[C@@](C)(CO)[C@@H]4[C@H](O)C[C@@]3(C)[C@]1(C)CC2` by its growth when you get a moment. class A

Hi, small favor: classify `Cn1cc(-c2csc(-c3cn(C)c4ncccc34)n2)c2cc(F)cnc21` by its growth when you get a moment. class B

Hi, small favor: classify `c1csc([C@@H]2C[C@@H]3Cc4ccc5ccccc5c4N2O3)c1` by its growth when you get a moment. class B

Hi, small favor: classify `COc1cc(Oc2cc(-c3cccnc3)ccc2NC(=O)Nc2ccc(F)cc2F)cc(OC)c1OC` by its growth when you get a moment. class C

Hi, small favor: classify `CC1=CSC2=NCCN12` by its growth when you get a moment. class C

Hi, small favor: classify CCC(C)CC(CC)NCCN1CCN(C(CC)CC(C)CC)C1=S (stereo not given) by its growth when you get a moment. class B

Hi, small favor: classify `O=C(NN(C(=O)c1ccccc1)c1cccs1)c1ccccc1` by its growth when you get a moment. class C

Hi, small favor: classify `O=C(OC[C@H]1O[C@H](OC(=O)c2cc(O)c(O)c(OC(=O)c3cc(O)c(O)c(O)c3)c2)[C@H](OC(=O)c2cc(O)c(O)c(OC(=O)c3cc(O)c(O)c(O)c3)c2)[C@@H](OC(=O)c2cc(O)c(O)c(OC(=O)c3cc(O)c(O)c(O)c3)c2)[C@@H]1OC(=O)c1cc(O)c(O)c(OC(=O)c2cc(O)c(O)c(O)c2)c1)c1cc(O)c(O)c(OC(=O)c2cc(O)c(O)c(O)c2)c1` by its growth when you get a moment. class A

Hi, small favor: classify `COC(=O)[C@]1(C(C)C)N[C@H](c2cn(-c3ccccc3)nc2-c2ccccc2)[C@@H]2C(=O)N(c3ccc(Cl)cc3)C(=O)[C@@H]21` by its growth when you get a moment. class B

Hi, small favor: classify `O=c1[nH]c(Cl)nc2c1cnn2-c1ccccc1` by its growth when you get a moment. class B

Hi, small favor: classify `Cc1nn(-c2ccc(Br)cc2)c2nc3c(nc12)C(=O)C(=O)c1ccccc1-3` by its growth when you get a moment. class C

Hi, small favor: classify `C/C(=N/N=C(N)N)c1ccc(N)cc1` by its growth when you get a moment. class A

Hi, small favor: classify `COc1ccc(Nc2nccc(N3CCN(c4c5ccc(Cl)cc5nc5ccc(OC)cc45)CC3)n2)cc1` by its growth when you get a moment. class B

Hi, small favor: classify `Cc1nc2c(O)cccc2cc1CO` by its growth when you get a moment. class C

// data source = PubChem BioAssay (NCI)
